# system-name: T1, SIRP-α human v2 (human, UniProt P78324 31-149, limits assumed)
# T1 construct: Soluble analyte in SPR
# T1 sequence (P78324 other isoform, or with tags, fused parts or gaps limits assumed): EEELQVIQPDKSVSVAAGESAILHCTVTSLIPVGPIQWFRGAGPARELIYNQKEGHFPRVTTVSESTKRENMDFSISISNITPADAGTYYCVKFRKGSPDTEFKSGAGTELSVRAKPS
# method-notes: SPR, antibody on GLC chip, SIRP as analyte
experimental-readout: Kd (nM)
Report the figure in nM without appending any unit label.

Query: I am curious: what Kd value has been reported for Anti-SIRP-α antibody 136, light chain Mut, heavy chain Mut (antibody, V domains shown, Whole antibody) VH: EVQLVESGGGVVQPGRSLRLSCAASGFTFSSYDVNWVRQAPGKGLEWVSLISGSGEIIYYADSVKGRFTISRDNSKNTLYLQMNSLRAEDTAVYYCAKENNRYRFFDDWGQGTLVTVSS VL: EIVLTQSPGTLSLSPGERATLSCRASQSVYTYLAWYQQKPGQAPRLLIYGASSRATGIPDRFSGSGSGTEFTLTISSLQSEDFAVYYCQQYYDRPPLTFGGGTKVEIK ?
Response: 20

Numbers sourced from patent US20220096649A1.
